Where these numbers come from: paper PMC12040169

The reader will find reported viability at 28.5 h, 10 µM values listed item by item below.
assay-text: in vitro
measurement-conditions: human, hela cells, % viability
The figure you give is taken to be in %; do not add the unit.

Recorded results for 10 molecules are shown here.
* O=C(Nc1nc(-c2cccnc2)cs1)c1cccc(N2C(=O)CCC2=O)c1 | 108
* COc1cccc(-c2nn(CCC#N)cc2C(N)=O)c1 | 95
* CC1CCc2c(sc(NC(=O)c3nc4ncccn4n3)c2C(N)=O)C1 (stereo not shown) | 96.3
* Ic1ccc(NCc2cn3ccccc3n2)cc1 | 91.4
* Cc1ccccc1CNC(=O)CN(c1cccc(C(F)(F)F)c1)S(=O)(=O)c1ccccc1 | 102
* CCCC(=O)N1CCCC([C@@H]2C[C@H](C(F)F)n3nc(C)cc3N2)C1 (stereo partly shown) | 93.2
* O=C(c1cc(F)c(F)cc1F)N1CCC2(CCN(CCN3CCOCC3)C2)C1 (stereo not shown) [CBK132145C] | 102
* COc1ccccc1-n1c(C)c(C(C)=O)c2cc(O)ccc21 | 86.3
* COCC(=O)NC(Cc1ccsc1)c1nc(C)cs1 (stereo not shown) | 99.5
* CN(C)S(=O)(=O)c1ccc(CCC(=O)O)cc1 | 92

Query: Sample C=CCOc1c(Br)cc(CNc2cccc(C(=O)O)c2)cc1OC — what was its viability at 28.5 h, 10 µM?
Result: 97.3

Query: Check O=C(CN1CCN(c2ncccn2)CC1)N1N=CCC1c1ccccc1 (stereo not shown) too.
Result: 89.4

Query: Check COC(=O)c1c(NC(=S)NNC(=O)c2nn(C)cc2I)sc2c1CCC2 too.
Result: 97.7

Query: Check Cc1cc(O)n2nc(CC(=O)NCCCn3ccnc3C(C)C)nc2n1 too.
Result: 91.5

Query: Check CN(C)CCN(C)C(=O)c1ccc(-c2cc3ccccc3o2)nc1NCc1cccnc1 too.
Result: 90.8

Query: Check CC(Cc1ccccn1)N(C)C(=O)c1cnn(-c2ccc(F)cc2)c1 (stereo not shown) too.
Result: 99.6

Query: Check CCOC(=O)C1=C(N)OC2=C(C(=O)CC(C)(C)C2)C1c1cc(OCC)ccc1OCC (stereo not shown) too.
Result: 107

Query: Check COC(=O)Cn1c(=O)n(CCc2ccccc2)c(=O)c2c3c(sc21)CCCC3 too.
Result: 98.6

Query: Check C[C@@H](Nc1nc(-c2cc(C(F)(F)F)cc(C(F)(F)F)c2)cnc1N)c1ccccc1 too.
Result: 105

====

assay-text: in vitro
measurement-conditions: human, hela cells, % viability
test-readout: viability at 28.5 h, 10 µM (%)
The figure you give is taken to be in %; do not add the unit.

Recorded results for 3 compounds are shown here.
* O=C(NCc1ccc(Cl)c(Cl)c1)N1CCCCC1CO (stereo not shown) | 113
* O=C(COc1ccc(Cl)cc1Cl)NC(Cc1ccccc1)C(=O)O (stereo not shown) | 102
* O=C(NCC1(O)CCSC1)c1c[nH]nc1-c1cc2ccccc2o1 (stereo not shown) | 88.3

Query: Sample Cn1c2c(c3ccccc31)CCOC21CCN(Cc2ccc(OC(F)F)cc2)CC1 — what was its viability at 28.5 h, 10 µM?
Result: 95.8

Query: Check c1cncc(CCOc2nccnc2N2CCNCC2)c1 too.
Result: 101

Query: Check NC(=O)c1cccc(NC(=O)/C=C/C(=O)O)c1 too.
Result: 96.8

Query: Check O=C(Nc1sc2c(c1C(=O)NCc1cccnc1)CCCC2)c1ccc(Cl)cc1 too.
Result: 88.2

Query: Check CCc1nnc(Sc2ccc(C=O)cc2[N+](=O)[O-])[nH]1 too.
Result: 95.4

Query: Check O=C(c1cccc(F)c1)N1C2CCC1CC(O)(c1cccnc1F)C2 (stereo not shown) too.
Result: 104

Query: Check CN1CCOCC(CNC(=O)c2ccc(-c3ccccc3CO)cc2)C1 (stereo not shown) too.
Result: 91.1
